- test target: DRB1*1501 (Homo sapiens, UniProt P01903+P01911)
- assay comment: biochemical

smi: CC(C)C[C@H](NC(=O)[C@H](C)NC(=O)[C@H](CCC(=O)O)NC(=O)[C@H](Cc1ccccc1)NC(=O)[C@H](CCC(=O)O)NC(=O)[C@H](CC(C)C)NC(=O)[C@H](Cc1ccc(O)cc1)NC(=O)[C@H](CCCNC(=N)N)NC(=O)[C@H](C)NC(=O)CNC(=O)[C@H](CC(C)C)NC(=O)[C@@H](N)Cc1c[nH]c2ccccc12)C(=O)NCC(=O)N[C@@H](Cc1ccccc1)C(=O)N[C@@H](CC(C)C)C(=O)N[C@@H](CC(N)=O)C(=O)N[C@@H](CCC(=O)O)C(=O)O
test target: DRB1*1501 (Homo sapiens, UniProt P01903+P01911)
IC50, µM: 0.338
//
smi: CSCC[C@H](NC(=O)[C@H](CC(C)C)NC(=O)[C@H](CCCNC(=N)N)NC(=O)[C@H](Cc1c[nH]cn1)NC(=O)[C@H](CC(=O)O)NC(=O)[C@H](CS)NC(=O)[C@H](CC(C)C)NC(=O)[C@H](CCC(N)=O)NC(=O)[C@@H](NC(=O)[C@H](Cc1ccc(O)cc1)NC(=O)[C@@H](NC(=O)[C@@H](N)CCC(=O)O)C(C)C)[C@@H](C)O)C(=O)N[C@@H](CO)C(=O)N[C@@H](C)C(=O)N[C@@H](C)C(=O)O
test target: DRB1*1501 (Homo sapiens, UniProt P01903+P01911)
IC50, µM: 1.04
//
smi: CC(C)C[C@H](NC(=O)[C@@H](NC(=O)CNC(=O)[C@H](CC(N)=O)NC(=O)[C@H](CO)NC(=O)[C@H](Cc1c[nH]c2ccccc12)NC(=O)[C@H](CC(C)C)NC(=O)[C@@H](NC(=O)[C@H](Cc1c[nH]cn1)NC(=O)[C@H](CO)NC(=O)[C@H](CCCCN)NC(=O)[C@@H]1CCCN1C(=O)[C@@H](N)Cc1c[nH]c2ccccc12)[C@@H](C)O)C(C)C)C(=O)N[C@@H](CCC(=O)O)C(=O)N[C@@H](CO)C(=O)O
test target: DRB1*1501 (Homo sapiens, UniProt P01903+P01911)
IC50, µM: 4.12
//
smi: CC[C@H](C)[C@H](NC(=O)[C@H](Cc1c[nH]c2ccccc12)NC(=O)[C@H](Cc1ccc(O)cc1)NC(=O)CNC(=O)[C@H](CCSC)NC(=O)[C@H](CC(=O)O)NC(=O)[C@H](C)NC(=O)[C@H](Cc1c[nH]cn1)NC(=O)[C@@H](NC(=O)[C@H](C)N)C(C)C)C(=O)N[C@@H](CCC(=O)O)C(=O)N[C@@H](CO)C(=O)N[C@@H](CCC(N)=O)C(=O)N[C@@H](CCCCN)C(=O)N[C@@H](CC(N)=O)C(=O)O
test target: DRB1*1501 (Homo sapiens, UniProt P01903+P01911)
IC50, µM: 6.34
//
smi: CSCC[C@H](NC(=O)[C@H](CCC(N)=O)NC(=O)[C@H](C)NC(=O)[C@H](Cc1ccc(O)cc1)NC(=O)[C@H](C)NC(=O)[C@H](CCCCN)NC(=O)CNC(=O)[C@H](CC(C)C)NC(=O)[C@H](CS)NC(=O)[C@H](C)NC(=O)[C@@H](NC(=O)[C@H](CCC(=O)O)NC(=O)[C@H](CCCNC(=N)N)NC(=O)[C@H](CC(C)C)NC(=O)[C@@H](N)CO)[C@@H](C)O)C(=O)N[C@@H](Cc1c[nH]c2ccccc12)C(=O)N[C@H](C(=O)O)[C@@H](C)O
test target: DRB1*1501 (Homo sapiens, UniProt P01903+P01911)
IC50, µM: 0.167

====

- test target: DRB1*0301 (Homo sapiens, UniProt P01903+P01911, A100K/A102G/A103R/A169T/F55Y/I96L/K41T/L162R/M171V/P40S/Q125H/Q178H/Q39Y/R42S/S66N/T106N/T262R/W38E/Y61H)
- Sequence (P01903 26-254, other chains not shown): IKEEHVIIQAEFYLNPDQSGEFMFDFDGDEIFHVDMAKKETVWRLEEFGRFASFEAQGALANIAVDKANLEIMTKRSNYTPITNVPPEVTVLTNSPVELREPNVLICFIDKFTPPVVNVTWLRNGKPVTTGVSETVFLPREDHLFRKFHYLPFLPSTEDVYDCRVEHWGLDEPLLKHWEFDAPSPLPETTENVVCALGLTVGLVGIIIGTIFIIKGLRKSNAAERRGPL
- assay comment: biochemical
pIC50: −log10 of the molar value.
Criterion: pIC50 meeting or surpassing 6. Met: 1 (yes). Not met: 0 (no).

compound: CC[C@H](C)[C@H](NC(=O)[C@H](C)NC(=O)[C@H](CC(N)=O)NC(=O)[C@H](C)NC(=O)[C@H](CC(C)C)NC(=O)[C@H](CCC(N)=O)NC(=O)[C@H](CCCNC(=N)N)NC(=O)[C@H](Cc1c[nH]cn1)NC(=O)[C@H](CCC(=O)O)NC(=O)[C@@H]1CCCN1)C(=O)N[C@@H](Cc1ccccc1)C(=O)N[C@@H](CCCCN)C(=O)N[C@@H](CC(C)C)C(=O)N[C@H](C(=O)N[C@@H](Cc1ccc(O)cc1)C(=O)N[C@@H](CCC(N)=O)C(=O)N[C@@H](CC(N)=O)C(=O)O)[C@@H](C)O [NS5 558-574]
answer label: 1 (yes)

compound: CC[C@H](C)[C@H](NC(=O)[C@@H](N)CCCCN)C(=O)N1CCC[C@H]1C(=O)NCC(=O)NCC(=O)N[C@@H](C)C(=O)N[C@@H](CCSC)C(=O)N[C@@H](Cc1ccc(O)cc1)C(=O)N[C@@H](C)C(=O)N[C@@H](CC(=O)O)C(=O)N[C@@H](CC(=O)O)C(=O)N[C@H](C(=O)N[C@@H](C)C(=O)NCC(=O)N[C@@H](Cc1c[nH]c2ccccc12)C(=O)N[C@@H](CC(=O)O)C(=O)N[C@H](C(=O)O)[C@@H](C)O)[C@@H](C)O [NS5 523-539]
answer label: 1 (yes)

compound: CSCC[C@H](NC(=O)[C@H](CCC(N)=O)NC(=O)[C@H](C)NC(=O)[C@H](Cc1ccc(O)cc1)NC(=O)[C@H](C)NC(=O)[C@H](CCCCN)NC(=O)CNC(=O)[C@H](CC(C)C)NC(=O)[C@H](CS)NC(=O)[C@H](C)NC(=O)[C@@H](NC(=O)[C@H](CCC(=O)O)NC(=O)[C@H](CCCNC(=N)N)NC(=O)[C@H](CC(C)C)NC(=O)[C@@H](N)CO)[C@@H](C)O)C(=O)N[C@@H](Cc1c[nH]c2ccccc12)C(=O)N[C@H](C(=O)O)[C@@H](C)O [NS5 747-763]
answer label: 0 (no)

compound: CC[C@H](C)[C@H](NC(=O)[C@H](CCCCN)NC(=O)[C@H](C)NC(=O)[C@H](CCCCN)NC(=O)CNC(=O)[C@H](Cc1c[nH]c2ccccc12)NC(=O)[C@@H](N)[C@@H](C)O)C(=O)N[C@H](C(=O)N[C@H](C(=O)N[C@@H](C)C(=O)N[C@@H](CCC(=O)O)C(=O)N[C@H](C(=O)N[C@@H](CCC(N)=O)C(=O)N[C@@H](CC(N)=O)C(=O)N[C@@H](CO)C(=O)O)[C@@H](C)O)[C@@H](C)O)C(C)C [NS1 117-131]
answer label: 0 (no)

compound: CC(C)C[C@H](NC(=O)[C@H](CCCNC(=N)N)NC(=O)[C@H](Cc1c[nH]cn1)NC(=O)[C@H](CC(=O)O)NC(=O)[C@H](CS)NC(=O)[C@H](CC(C)C)NC(=O)[C@H](CCC(N)=O)NC(=O)[C@@H](NC(=O)[C@H](Cc1ccc(O)cc1)NC(=O)[C@@H](NC(=O)[C@H](CCC(=O)O)NC(=O)[C@H](CCCNC(=N)N)NC(=O)[C@H](CC(C)C)NC(=O)[C@H](CCCCN)NC(=O)[C@@H](N)CC(C)C)C(C)C)[C@@H](C)O)C(=O)O [NS1 169-183]
answer label: 0 (no)

compound: CSCC[C@H](NC(=O)CNC(=O)[C@H](CCCCN)NC(=O)[C@H](CC(C)C)NC(=O)[C@H](CCC(=O)O)NC(=O)[C@H](CC(C)C)NC(=O)[C@H](CCCCN)NC(=O)[C@H](CC(=O)O)NC(=O)[C@H](CCSC)NC(=O)[C@H](CCCCN)NC(=O)[C@H](CC(C)C)NC(=O)[C@H](CCCNC(=N)N)NC(=O)[C@H](CS)NC(=O)[C@H](CCCCN)NC(=O)[C@@H](N)CC(C)C)C(=O)O [Envelope 281-295]
answer label: 1 (yes)

====

- test target: DRB1*1302 (Homo sapiens, UniProt P01903+P01911, A100E/A169T/K41T/L162R/M171V/P40S/Q125H/Q178H/Q39Y/Q99D/R42S/S66N/T262R/V115G/W38E/Y61H)
- assay comment: biochemical
- Type: binding

smi: CC[C@H](C)[C@H](NC(=O)[C@H](C)N)C(=O)N[C@@H](CCC(N)=O)C(=O)N[C@@H](CCC(N)=O)C(=O)N[C@H](C(=O)N[C@@H](CCCNC(=N)N)C(=O)N[C@@H](CO)C(=O)N[C@@H](CC(C)C)C(=O)N[C@H](C(=O)NCC(=O)N[C@@H](CC(N)=O)C(=O)N[C@@H](CCC(=O)O)C(=O)N[C@@H](CCC(=O)O)C(=O)N[C@@H](Cc1ccccc1)C(=O)N[C@@H](CC(C)C)C(=O)N[C@@H](CC(=O)O)C(=O)N[C@@H](Cc1ccc(O)cc1)C(=O)O)[C@@H](C)CC)C(C)C
IC50 [nM]: 543
//
smi: CC(C)C[C@H](NC(=O)[C@H](CCC(=O)O)NC(=O)[C@H](CCCCN)NC(=O)[C@@H](N)CCCNC(=N)N)C(=O)N[C@@H](CC(C)C)C(=O)N[C@H](C(=O)N[C@H](C(=O)N[C@@H](Cc1ccccc1)C(=O)N[C@@H](CCCCN)C(=O)N[C@@H](CC(N)=O)C(=O)N[C@@H](C)C(=O)N[C@@H](Cc1c[nH]cn1)C(=O)N[C@@H](C)C(=O)N[C@@H](CCCCN)C(=O)N[C@@H](CCCCN)C(=O)O)[C@@H](C)O)C(C)C
IC50 [nM]: 17200
//
smi: CSCC[C@H](NC(=O)CNC(=O)[C@H](CCCCN)NC(=O)[C@H](CC(C)C)NC(=O)[C@H](CCC(=O)O)NC(=O)[C@H](CC(C)C)NC(=O)[C@H](CCCCN)NC(=O)[C@H](CC(=O)O)NC(=O)[C@H](CCSC)NC(=O)[C@H](CCCCN)NC(=O)[C@H](CC(C)C)NC(=O)[C@H](CCCNC(=N)N)NC(=O)[C@H](CS)NC(=O)[C@H](CCCCN)NC(=O)[C@@H](N)CC(C)C)C(=O)O
IC50 [nM]: 915
